Protocol notes: Plasma DCA levels by HPLC, bolus and infusion protocol (Example C)
Assay type: in vivo, pediatric patients
Condition info: human, 50 mg/kg, Group A, 50mg/kg bolus and 25mg/kg/hr infusion, n=11, read-out: Average DCA Plasma Levels, mM at 24 hr
Endpoint: concentration at 24 h (mM)
Kindly answer with a numeric value in mM, unit omitted.

// fetch concentration at 24 h given entry O=C(O)C(Cl)Cl [DCA, dichloroacetate] 2.72

###

Protocol notes: Plasma DCA levels by HPLC, bolus and infusion protocol (Example C)
Assay type: in vivo, pediatric patients
Condition info: human, 100 mg/kg, Group B, 100mg/kg bolus and 12.5 mg/kg/hr infusion, n=11, read-out: Average DCA Plasma Levels, mM at 6 hr
Endpoint: concentration at 6 h (mM)
Give the number; mM is assumed, so skip it.

Note concentration at 6 h for the molecule shown: O=C(O)C(Cl)Cl [DCA, dichloroacetate] 0.894

###

Protocol notes: Plasma DCA levels by HPLC, bolus and infusion protocol (Example C)
Assay type: in vivo, pediatric patients
Condition info: human, 50 mg/kg, Group A, 50mg/kg bolus and 25mg/kg/hr infusion, n=9, read-out: Average DCA Plasma Levels, mM at 12 hr
Endpoint: concentration at 12 h (mM)
Give just the numeric value; mM need not be written.

Please look at this compound and report its concentration at 12 h: O=C(O)C(Cl)Cl [DCA, dichloroacetate] 1.77

###

Protocol notes: Plasma DCA levels by HPLC, bolus and infusion protocol (Example C)
Type: in vivo, pediatric patients
Condition info: human, Example C, 12 hour interval, read-out: DCA plasma level range
Endpoint: concentration at 12 h

Item O=C(O)C(Cl)Cl [DCA, dichloroacetate] : provide concentration at 12 h 380 to 3070 µM

###

Protocol notes: Plasma DCA levels by HPLC, bolus and infusion protocol (Example C)
Assay type: in vivo, pediatric patients
Condition info: human, 100 mg/kg, Group B, 100mg/kg bolus and 12.5 mg/kg/hr infusion, n not given, read-out: Average Optimum Mean of DCA Plasma Levels, mM at 12 hr
Endpoint: concentration at 12 h
Remember to put the unit after the number in your answer.

Specify concentration at 12 h for O=C(O)C(Cl)Cl [DCA, dichloroacetate] and stop. 1 mM

###

Protocol notes: Plasma DCA levels by HPLC, bolus and infusion protocol (Example C)
Format: in vivo, pediatric patients
Condition info: human, Example C, 1 to 6 hour interval, read-out: DCA plasma level range
Endpoint: concentration at 6 h

Quick one: give measured concentration at 6 h for O=C(O)C(Cl)Cl [DCA, dichloroacetate] 229 to 2220 µM

###

Protocol notes: Plasma DCA levels by HPLC, bolus and infusion protocol (Example C)
Format: in vivo, pediatric patients
Condition info: human, 100 mg/kg, Group B, 100mg/kg bolus and 12.5 mg/kg/hr infusion, n not given, read-out: Average Optimum Mean of DCA Plasma Levels, mM at 24 hr
Endpoint: concentration at 24 h (mM)
# value in mM; strip the unit string

Let me know recorded concentration at 24 h for O=C(O)C(Cl)Cl [DCA, dichloroacetate] , thanks. 1

###

Protocol notes: Plasma DCA levels by HPLC, bolus and infusion protocol (Example C)
Assay type: in vivo, pediatric patients
Condition info: human, 50 mg/kg, Example C, 24 hour interval (Group A), read-out: optimum mean level of DCA in plasma
Endpoint: concentration at 24 h (µM)
Write it as a number; the unit µM goes unstated.

Answer with reported concentration at 24 h of O=C(O)C(Cl)Cl [DCA, dichloroacetate] 2290

###

Protocol notes: Plasma DCA levels by HPLC, bolus and infusion protocol (Example C)
Assay type: in vivo, pediatric patients
Condition info: human, Example C, 12 hour interval, read-out: optimum mean level of DCA in plasma
Endpoint: concentration at 12 h
Phrase the answer as number then unit, nothing more needed.

In one line, give reported concentration at 12 h of the entry O=C(O)C(Cl)Cl [DCA, dichloroacetate] . 1520 µM
